Where these numbers come from: PubChem BioAssay (NCI)

Form field: TGI (one value per entry).
Tested on: NCI-H23 lung
Assay: NCI tumour cell line growth inhibition, 48 h

Study these solved cases before continuing.
{"compound": "CCn1cc(C2NC(=O)c3ccccc3N2)c2cccc(C)c21 (stereo not drawn)", "TGI": "> 100 µM"}
{"compound": "CN(C)CCN(C)CCC(=O)/C=C/c1ccccc1", "TGI": "> 61.1 µM"}

Reported TGI of `CN(C)C(=S)NC(=S)Nc1ccc2ccccc2c1` : 43.9 µM

For `Nc1c(N2CCCCC2)c(=O)nc2[nH]/c(=C\c3ccco3)c(=O)n12` the compound record lists TGI as > 100 µM

// TGI value for C#CCC(O)c1ccccc1C(O)CC#C (stereo not drawn) : > 100 µM

response.value for `COc1ccc2nc3n[nH]c(N)c3nc2c1` (field: TGI) = 15.5 µM

So for `C[n+]1c2ccccc2c2/c(=C\C#N)c3ccccc3n21` , the logged TGI turned out to be 77.1 µM

// `COC(=O)c1ccc2[nH]c(O)c(C(=Nc3ccc(N(C)C(=O)CN4CCN(C)CC4)cc3)c3cccc(OC)c3)c2c1` : TGI value = 3.48 µM
